- target_or_system: T1, 4H717-AA
- T1 chain: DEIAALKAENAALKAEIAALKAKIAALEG
- assay_info: two-hybrid library CCmax;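 further: natural log of median RNA to DNA barcode read ratio; higher means stronger binding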
- condition_set: mean of both orientations
Answer label 0 if interaction score is under -0.9, and label 1 if it is -0.9 or more.

Use the examples below as a reference point.
[
  {
    "binder": "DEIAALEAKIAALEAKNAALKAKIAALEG [4H317-AA]",
    "label_value": "label 0"
  },
  {
    "binder": "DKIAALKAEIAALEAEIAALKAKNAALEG [4H2575-AA]",
    "label_value": "label 0"
  },
  {
    "binder": "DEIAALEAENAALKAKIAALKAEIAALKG [4H234-AA]",
    "label_value": "label 1"
  }
]

In: Entry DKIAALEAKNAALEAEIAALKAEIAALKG [4H2442-AA] : is its interaction score no less than -0.9?
Out: label 0

In: # check: interaction score of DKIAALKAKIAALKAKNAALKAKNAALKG [4H2944-AA] is greater than or equal to -0.9
Out: label 0

In: Dear colleague, could you confirm whether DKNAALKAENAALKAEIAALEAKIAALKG [4H3782-AA] has interaction score at or above -0.9?
Out: label 1

In: Check the entry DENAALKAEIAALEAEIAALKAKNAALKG [4H1552-AA] : does interaction score equal or exceed -0.9?
Out: label 0

Cited source: paper PMC10397247
